# Kd per entry
# system: T1, Fusion protein of extracellular domain of human TIGIT and His-tag (human TIGIT ECD-his) (human)
# T1 chain: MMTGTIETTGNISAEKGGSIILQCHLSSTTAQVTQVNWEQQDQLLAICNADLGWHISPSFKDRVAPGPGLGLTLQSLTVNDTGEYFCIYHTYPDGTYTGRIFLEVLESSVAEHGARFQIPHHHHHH
# assayInfo: BIAcore

Please review the following examples before continuing.
TIGIT-006-H2L2 (antibody, V domains shown, Humanized anti-TIGIT antibody) VH: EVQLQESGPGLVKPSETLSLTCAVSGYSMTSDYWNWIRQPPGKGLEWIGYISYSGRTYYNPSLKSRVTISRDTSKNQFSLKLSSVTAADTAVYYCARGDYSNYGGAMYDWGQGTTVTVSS VL: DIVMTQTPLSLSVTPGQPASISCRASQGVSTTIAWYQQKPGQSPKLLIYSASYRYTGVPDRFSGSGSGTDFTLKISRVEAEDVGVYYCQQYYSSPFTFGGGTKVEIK; 0.893 nM
TIGIT-006-H1L1 (antibody, V domains shown, Humanized anti-TIGIT antibody) VH: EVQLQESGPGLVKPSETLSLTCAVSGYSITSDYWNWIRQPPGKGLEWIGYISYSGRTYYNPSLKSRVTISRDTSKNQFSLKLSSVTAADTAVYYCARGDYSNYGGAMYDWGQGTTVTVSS VL: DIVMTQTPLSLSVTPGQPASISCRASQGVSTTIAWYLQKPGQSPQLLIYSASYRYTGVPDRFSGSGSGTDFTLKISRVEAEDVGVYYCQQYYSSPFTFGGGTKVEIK; 6.21 nM

[ask] Specify Kd for TIGIT-CHI-006 (antibody, V domains shown, Human-mouse chimeric antibody) VH: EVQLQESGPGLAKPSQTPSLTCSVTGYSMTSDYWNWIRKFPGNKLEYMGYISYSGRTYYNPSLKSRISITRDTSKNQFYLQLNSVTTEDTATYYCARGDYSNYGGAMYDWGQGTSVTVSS VL: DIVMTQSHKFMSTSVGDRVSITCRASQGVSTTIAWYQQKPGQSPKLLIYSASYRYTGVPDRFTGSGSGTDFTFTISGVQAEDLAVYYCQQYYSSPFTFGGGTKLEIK and stop.
[reply] 0.0774 nM
